target: HLA-B*51:01; assay: IEDB peptide-MHC binding, purified MHC/competitive/radioactivity; filed as Kd, often an IC50 or EC50 that approximates it; bounds were set here for any values at or beyond the usual limits of such assays; conditions: source organism: Dengue virus 1 Brazil/97-11/1997
Outcome Measure: Kd

Inquiry: Provide value of Kd for this record tested with HLA-B*51:01: FTQTAGPWHL
Reply text: ≥ 36.5 µM

* * *

target: HLA-B*58:01; assay: IEDB peptide-MHC binding, purified MHC/competitive/radioactivity; filed as Kd, often an IC50 or EC50 that approximates it; bounds were set here for any values at or beyond the usual limits of such assays; conditions: source organism: Dengue virus 1 Singapore/S275/1990
Outcome Measure: pKd
Give bare numbers, as −log10 of the molar value.

Inquiry: Which pKd is listed for GASHNILVEV ?
Reply text: 5.02
